Below is a list of entries, each paired with its recorded MIC value.
# Tested on: Rms213/Escherichia coli K-12 W3630
# experiment: MIC, serial dilution method in Müller-Hinton agar
# Format: cell-based
# measurement.setup: 18 h

{"molecule": "C/C=C\\C1=C(C(=O)O)N2C(=O)C(NC(=O)[C@H](N)c3ccc(COC)c(OC)c3)[C@H]2SC1 (stereo partly shown) [Example 6 Compound]", "reading.unit": "µg/mL", "MIC": 12.5}
{"molecule": "C/C=C\\C1=C(C(=O)O)N2C(=O)C(NC(=O)[C@H](N)c3ccc(CO)c(OC)c3)[C@H]2SC1 (stereo partly shown) [Example 5 Compound]", "reading.unit": "µg/mL", "MIC": 25}
{"molecule": "C=CC1=C(C(=O)O)N2C(=O)C(NC(=O)[C@H](N)c3ccc(CO)c(O)c3)[C@H]2SC1 (stereo partly shown) [Example 3 Compound]", "reading.unit": "µg/mL", "MIC": 12.5}
{"molecule": "CC1=C(C(=O)O)N2C(=O)C(NC(=O)[C@H](N)c3ccc(CO)c(O)c3)[C@H]2SC1 (stereo partly shown) [Example 1 Compound]", "reading.unit": "µg/mL", "MIC": 12.5}
{"molecule": "C/C=C\\C1=C(C(=O)O)N2C(=O)C(NC(=O)[C@H](N)c3ccc(CO)c(O)c3)[C@H]2SC1 (stereo partly shown) [Example 4 Compound]", "reading.unit": "µg/mL", "MIC": 6.25}
{"molecule": "CC1=C(C(=O)O)N2C(=O)[C@@H](NC(=O)[C@H](N)c3ccccc3)[C@H]2SC1 [CEX, Cefalexin, reference compound]", "reading.unit": "µg/mL", "MIC": 12.5}
{"molecule": "COCC1=C(C(=O)O)N2C(=O)C(NC(=O)[C@H](N)c3ccc(CO)c(O)c3)[C@H]2SC1 (stereo partly shown) [Example 2 Compound]", "reading.unit": "µg/mL", "MIC": 12.5}

###

Salmonella typhi 901 MIC data
property: MIC (µg/mL)

{"compound": "COCC1=C(C(=O)O)N2C(=O)C(NC(=O)[C@H](N)c3ccc(CO)c(O)c3)[C@H]2SC1 (stereo partly shown) [Example 2 Compound]", "study.system": "Salmonella typhi 901", "property": "MIC", "recorded.result": 6.25}
{"compound": "C=CC1=C(C(=O)O)N2C(=O)C(NC(=O)[C@H](N)c3ccc(CO)c(O)c3)[C@H]2SC1 (stereo partly shown) [Example 3 Compound]", "study.system": "Salmonella typhi 901", "property": "MIC", "recorded.result": 3.13}
{"compound": "C/C=C\\C1=C(C(=O)O)N2C(=O)C(NC(=O)[C@H](N)c3ccc(CO)c(OC)c3)[C@H]2SC1 (stereo partly shown) [Example 5 Compound]", "study.system": "Salmonella typhi 901", "property": "MIC", "recorded.result": 1.56}
{"compound": "CC1=C(C(=O)O)N2C(=O)C(NC(=O)[C@H](N)c3ccc(CO)c(O)c3)[C@H]2SC1 (stereo partly shown) [Example 1 Compound]", "study.system": "Salmonella typhi 901", "property": "MIC", "recorded.result": 6.25}
{"compound": "CC1=C(C(=O)O)N2C(=O)[C@@H](NC(=O)[C@H](N)c3ccccc3)[C@H]2SC1 [CEX, Cefalexin, reference compound]", "study.system": "Salmonella typhi 901", "property": "MIC", "recorded.result": 3.13}
{"compound": "C/C=C\\C1=C(C(=O)O)N2C(=O)C(NC(=O)[C@H](N)c3ccc(COC)c(OC)c3)[C@H]2SC1 (stereo partly shown) [Example 6 Compound]", "study.system": "Salmonella typhi 901", "property": "MIC", "recorded.result": 12.5}
{"compound": "C/C=C\\C1=C(C(=O)O)N2C(=O)C(NC(=O)[C@H](N)c3ccc(CO)c(O)c3)[C@H]2SC1 (stereo partly shown) [Example 4 Compound]", "study.system": "Salmonella typhi 901", "property": "MIC", "recorded.result": 0.78}

###

Micrococcus luteus ATCC9341 MIC data
property: MIC (µg/mL)

{"compound": "COCC1=C(C(=O)O)N2C(=O)C(NC(=O)[C@H](N)c3ccc(CO)c(O)c3)[C@H]2SC1 (stereo partly shown)", "reading.unit": "µg/mL", "recorded.result": 0.1}
{"compound": "C=CC1=C(C(=O)O)N2C(=O)C(NC(=O)[C@H](N)c3ccc(CO)c(O)c3)[C@H]2SC1 (stereo partly shown)", "reading.unit": "µg/mL", "recorded.result": 0.2}
{"compound": "C/C=C\\C1=C(C(=O)O)N2C(=O)C(NC(=O)[C@H](N)c3ccc(CO)c(OC)c3)[C@H]2SC1 (stereo partly shown)", "reading.unit": "µg/mL", "recorded.result": 0.025}
{"compound": "CC1=C(C(=O)O)N2C(=O)C(NC(=O)[C@H](N)c3ccc(CO)c(O)c3)[C@H]2SC1 (stereo partly shown)", "reading.unit": "µg/mL", "recorded.result": 0.1}
{"compound": "C/C=C\\C1=C(C(=O)O)N2C(=O)C(NC(=O)[C@H](N)c3ccc(COC)c(OC)c3)[C@H]2SC1 (stereo partly shown)", "reading.unit": "µg/mL", "recorded.result": 0.025}
{"compound": "C/C=C\\C1=C(C(=O)O)N2C(=O)C(NC(=O)[C@H](N)c3ccc(CO)c(O)c3)[C@H]2SC1 (stereo partly shown)", "reading.unit": "µg/mL", "recorded.result": 0.1}
{"compound": "CC1=C(C(=O)O)N2C(=O)[C@@H](NC(=O)[C@H](N)c3ccccc3)[C@H]2SC1 [CEX, Cefalexin, reference compound]", "reading.unit": "µg/mL", "recorded.result": 0.1}

###

# Tested on: Salmonella enteritidis G14
# experiment: MIC, serial dilution method in Müller-Hinton agar
# Type: cell-based
# measurement.setup: Salmonella enterica; Salmonella enteritidis G14; Müller-Hinton agar, 37°C, 18 hours; read-out: MIC
property: MIC (µg/mL)

{"compound": "CC1=C(C(=O)O)N2C(=O)C(NC(=O)[C@H](N)c3ccc(CO)c(O)c3)[C@H]2SC1 (some centres unmarked) [Example 1 Compound]", "relation": "=", "recorded.result": 50}
{"compound": "C/C=C\\C1=C(C(=O)O)N2C(=O)C(NC(=O)[C@H](N)c3ccc(CO)c(OC)c3)[C@H]2SC1 (some centres unmarked) [Example 5 Compound]", "relation": "=", "recorded.result": 0.78}
{"compound": "CC1=C(C(=O)O)N2C(=O)[C@@H](NC(=O)[C@H](N)c3ccccc3)[C@H]2SC1 [CEX, Cefalexin, reference compound]", "relation": ">", "recorded.result": 100}
{"compound": "C/C=C\\C1=C(C(=O)O)N2C(=O)C(NC(=O)[C@H](N)c3ccc(CO)c(O)c3)[C@H]2SC1 (some centres unmarked) [Example 4 Compound]", "relation": "=", "recorded.result": 0.78}
{"compound": "C/C=C\\C1=C(C(=O)O)N2C(=O)C(NC(=O)[C@H](N)c3ccc(COC)c(OC)c3)[C@H]2SC1 (some centres unmarked) [Example 6 Compound]", "relation": "=", "recorded.result": 6.25}

###

# Test system: Rms823/Escherichia coli K-12 W3630
# experiment: MIC, serial dilution method in Müller-Hinton agar
# Assay type: cell-based
# measurement.setup: 18 h

{"molecule": "C=CC1=C(C(=O)O)N2C(=O)C(NC(=O)[C@H](N)c3ccc(CO)c(O)c3)[C@H]2SC1 (stereo partly drawn)", "study.system": "Rms823/Escherichia coli K-12 W3630", "reading.unit": "µg/mL", "relation": ">", "MIC": 100}
{"molecule": "CC1=C(C(=O)O)N2C(=O)[C@@H](NC(=O)[C@H](N)c3ccccc3)[C@H]2SC1 [CEX, Cefalexin, reference compound]", "study.system": "Rms823/Escherichia coli K-12 W3630", "reading.unit": "µg/mL", "relation": "=", "MIC": 12.5}
{"molecule": "CC1=C(C(=O)O)N2C(=O)C(NC(=O)[C@H](N)c3ccc(CO)c(O)c3)[C@H]2SC1 (stereo partly drawn)", "study.system": "Rms823/Escherichia coli K-12 W3630", "reading.unit": "µg/mL", "relation": "=", "MIC": 100}

###

Below is a list of entries, each paired with its recorded dose excreted value.
# experiment: Test 1: urinary recovery after oral administration
# Assay type: in vivo
# measurement.setup: mice (ICR-strain, female), 300 mcg per mouse, urine collected until 5 hours after administration, microbial assay, molar percentage
# Description: To mice (ICR-strain, female, 4 weeks-aged) was orally administered a new cephalosporin compound according to this invention at a dosage of 300 mcg per mouse. Until the end of 5 hours after oral administration of the test cephalosporin compound, all the volumes of urine discharged by the treated mice were collected together, and the total amount of the test compound remaining in the collected urine was measured by a microbial assay method. […]
property: dose excreted (%)

{"compound": "C=CC1=C(C(=O)O)N2C(=O)C(NC(=O)[C@H](N)c3ccc(CO)c(O)c3)[C@H]2SC1 (stereo partly drawn)", "reading.unit": "%", "recorded.result": 65}
{"compound": "CC1=C(C(=O)O)N2C(=O)C(NC(=O)[C@H](N)c3ccc(CO)c(O)c3)[C@H]2SC1 (stereo partly drawn)", "reading.unit": "%", "recorded.result": 65.1}
{"compound": "C/C=C\\C1=C(C(=O)O)N2C(=O)C(NC(=O)[C@H](N)c3ccc(COC)c(OC)c3)[C@H]2SC1 (stereo partly drawn)", "reading.unit": "%", "recorded.result": 32.9}
{"compound": "C/C=C\\C1=C(C(=O)O)N2C(=O)C(NC(=O)[C@H](N)c3ccc(CO)c(OC)c3)[C@H]2SC1 (stereo partly drawn)", "reading.unit": "%", "recorded.result": 47.9}
{"compound": "COCC1=C(C(=O)O)N2C(=O)C(NC(=O)[C@H](N)c3ccc(CO)c(O)c3)[C@H]2SC1 (stereo partly drawn)", "reading.unit": "%", "recorded.result": 48.3}
{"compound": "C/C=C\\C1=C(C(=O)O)N2C(=O)C(NC(=O)[C@H](N)c3ccc(CO)c(O)c3)[C@H]2SC1 (stereo partly drawn)", "reading.unit": "%", "recorded.result": 58.8}

Data origin: patent EP0321364A2
